- assayedSystem: T1, mouse 4-1BB protein (extracellular domain) (mouse, UniProt P20334 24-187)
- T1 construct: extracellular domain; also called mouse 4-1BB-his; mouse 4-1BB-hFc protein
- T1 sequence (looked up): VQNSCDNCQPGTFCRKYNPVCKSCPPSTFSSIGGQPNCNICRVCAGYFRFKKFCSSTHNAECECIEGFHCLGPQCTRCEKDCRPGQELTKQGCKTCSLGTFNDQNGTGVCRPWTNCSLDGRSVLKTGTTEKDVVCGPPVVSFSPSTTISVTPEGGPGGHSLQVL
- procedureDetails: ELISA, coated mouse 4-1BB; Ab 0.0006 ug/ml
Reported OD450 nm values follow for various binders
Express your answer in OD450 nm, writing the number without its unit.

• 172E3E3 (antibody, V domains shown) VH: QVQLQESGPGLVKPSGTLSLTCAVSGGSISSSNWWSWVRQPPGKGLEWIGEIYHSGSTNYNPSLKSRVTISVDKSKNQLSLNLSSVTAADTAVYYCARQGGVAGTLYWYFDLWGRGTLVTVSS VL: DIVMTQSPLSLPVTPGEPASISCRSSQGLLHSNGYNYLDWYLQKPGQSPQLLIYLGSNRASGVPDRFIGSGSGTDFTLKIRRVEAEDVGVYYCMQVLQTPWTFGQGTKVEIK = 0.05

The record that follows has no OD450 nm shown yet.
Task: // OD450 nm lookup, key: 170D7F2 (antibody, V domains shown) VH: QVQLVQSGAEVKKPGASVKVSCKASGYTFTSYDINWVRQATGQGLEWMGWMNPNSGNTGYAQKFQGRVTMTRNTSISTAYMELSSLRSEDTAVYYCARETGPFDYWGQGTLVTVSS VL: DIQMTQSPSSLSASVGDRVTITCRASQRINNYLNWYQQKPGKAPKLLIYGASSLQSGVPSRFSGSGSGTDFTLTISSLQPEDFATYYCQQSYSTPFTFGPGTKVDIK
Result: 0.05
